TEST_TARGET: human DGKζ (Homo sapiens)
Construct: TVMV protease cleavage site (C); Hexa-His (C); made in house; host or cells: Sf9 insect cells (baculovirus, Bac-to-Bac)
Sequence (Q13574 with tags, fused parts or gaps isoform Q13574-4): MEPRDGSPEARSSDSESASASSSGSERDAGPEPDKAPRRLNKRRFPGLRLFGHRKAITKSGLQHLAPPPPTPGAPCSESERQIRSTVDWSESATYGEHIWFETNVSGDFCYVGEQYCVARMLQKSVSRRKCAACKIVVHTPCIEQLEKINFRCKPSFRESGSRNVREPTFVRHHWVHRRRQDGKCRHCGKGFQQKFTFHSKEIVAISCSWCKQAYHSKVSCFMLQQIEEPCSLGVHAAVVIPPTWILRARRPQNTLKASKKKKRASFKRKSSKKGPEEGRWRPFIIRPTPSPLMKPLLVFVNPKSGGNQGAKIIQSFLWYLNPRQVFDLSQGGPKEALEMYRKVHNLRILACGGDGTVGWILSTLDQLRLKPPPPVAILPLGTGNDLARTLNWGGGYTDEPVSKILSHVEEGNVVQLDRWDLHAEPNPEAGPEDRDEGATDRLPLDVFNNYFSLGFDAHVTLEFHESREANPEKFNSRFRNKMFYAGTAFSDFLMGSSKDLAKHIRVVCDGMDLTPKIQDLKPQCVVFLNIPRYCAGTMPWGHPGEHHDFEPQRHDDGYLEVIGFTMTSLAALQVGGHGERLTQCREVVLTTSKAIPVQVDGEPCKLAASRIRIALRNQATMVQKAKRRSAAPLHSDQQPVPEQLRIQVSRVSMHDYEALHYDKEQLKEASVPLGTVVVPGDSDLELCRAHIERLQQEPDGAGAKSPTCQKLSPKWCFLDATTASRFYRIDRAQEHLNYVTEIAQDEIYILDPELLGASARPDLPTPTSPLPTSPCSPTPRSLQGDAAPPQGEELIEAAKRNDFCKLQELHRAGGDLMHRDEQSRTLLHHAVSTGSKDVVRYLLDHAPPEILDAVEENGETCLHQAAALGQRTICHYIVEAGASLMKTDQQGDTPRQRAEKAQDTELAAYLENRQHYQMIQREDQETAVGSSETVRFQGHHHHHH
ASSAY_PROTOCOL: DGKζ LIPGLO assay (extruded liposome substrate), in vitro DGK inhibition
Assay type: biochemical
PARTICULARS: liposome (LIPGLO) assay; read-out: DGKz LIPGLO IC50
# binning rule on IC50: small value (below 600 nM), mid value (600 nM to below 3000 nM), large value (3000 nM or more)

{"COMPOUND": "C[C@@H]1CN(c2cc(=O)n(C)c3ccc(C#N)nc23)CCN1C(c1ccc(Cl)cc1)c1ccc(Cl)cc1 [Example 104]", "LABEL_VALUE": "large value"}
{"COMPOUND": "Cc1ccc(C(c2ccc(Cl)cn2)N2C[C@H](C)N(c3cc(=O)n(C)c4ccc(C#N)nc34)C[C@H]2C)cc1 (single isomer, unassigned) [Example 199]", "LABEL_VALUE": "small value"}
{"COMPOUND": "Cc1cc(C(C)N2C[C@H](C)N(c3cc(=O)n(C)c4ccc(C#N)nc34)C[C@H]2C)no1 (single isomer, unassigned) [Example 649]", "LABEL_VALUE": "large value"}
{"COMPOUND": "CC[C@H]1CN(C(C)c2ccc(F)cc2)[C@H](C)CN1c1cc(=O)n(C)c2ccc(C#N)nc12 (single isomer, unassigned) [Example 1135]", "LABEL_VALUE": "small value"}
{"COMPOUND": "COc1cc(F)c(C(C)N2C[C@H](C)N(c3cc(=O)n(C)c4ccc(C#N)nc34)C[C@H]2C)cc1OC (single isomer, unassigned) [Example 1246]", "LABEL_VALUE": "small value"}

Query :: Looking at CC(C)Oc1ccc(C(C)N2C[C@H](C)N(c3cc(=O)n(C)c4ccc(C#N)nc34)C[C@H]2C)cn1 (single isomer, unassigned) [Example 1325] , which class would you pick?
Result :: mid value

Query :: Thanks! And CC[C@@H]1CN(c2cc(=O)n(C)c3ccc(C#N)nc23)[C@@H](C)CN1C(c1ccc(F)cc1)c1ccc(C#N)cc1 (single isomer, unassigned) [Example 1102] ?
Result :: mid value

---

TEST_TARGET: human DGKα (Homo sapiens)
Construct: TVMV protease cleavage site (C); Hexa-His (C); made in house; host or cells: Sf9 insect cells (baculovirus, Bac-to-Bac)
Sequence (P23743 with tags, fused parts or gaps): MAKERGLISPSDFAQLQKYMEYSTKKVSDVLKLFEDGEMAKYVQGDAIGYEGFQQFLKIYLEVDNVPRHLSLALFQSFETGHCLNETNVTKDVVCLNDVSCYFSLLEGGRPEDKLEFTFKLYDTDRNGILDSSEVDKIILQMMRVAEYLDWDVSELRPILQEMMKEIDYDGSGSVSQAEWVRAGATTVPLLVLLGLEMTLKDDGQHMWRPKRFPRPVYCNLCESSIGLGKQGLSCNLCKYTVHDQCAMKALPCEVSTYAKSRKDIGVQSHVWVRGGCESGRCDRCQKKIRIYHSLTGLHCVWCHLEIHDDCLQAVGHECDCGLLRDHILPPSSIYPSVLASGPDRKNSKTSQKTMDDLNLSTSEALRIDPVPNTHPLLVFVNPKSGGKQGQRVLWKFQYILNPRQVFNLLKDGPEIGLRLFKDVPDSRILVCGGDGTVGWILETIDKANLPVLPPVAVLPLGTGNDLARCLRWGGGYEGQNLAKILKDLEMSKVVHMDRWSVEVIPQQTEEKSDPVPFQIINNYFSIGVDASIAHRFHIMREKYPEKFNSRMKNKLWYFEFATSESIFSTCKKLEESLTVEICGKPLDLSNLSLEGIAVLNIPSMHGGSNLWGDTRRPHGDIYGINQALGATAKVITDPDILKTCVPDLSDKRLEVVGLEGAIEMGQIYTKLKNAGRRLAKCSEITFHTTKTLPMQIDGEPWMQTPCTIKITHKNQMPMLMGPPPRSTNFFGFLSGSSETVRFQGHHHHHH
ASSAY_PROTOCOL: DGKα LIPGLO assay (extruded liposome substrate), in vitro DGK inhibition
Assay type: biochemical
PARTICULARS: liposome (LIPGLO) assay; read-out: DGKa LIPGLO IC50
METRIC: pIC50
Scale note: pIC50 = -log10(concentration in M).

{"COMPOUND": "CC[C@H]1CN(C(c2ccc(F)cc2)c2ccc(C#N)cc2)[C@H](COC)CN1c1cc(=O)n(C)c2ccc(C#N)nc12 (single isomer, unassigned) [Example 1171]", "pIC50": 5.82}
{"COMPOUND": "CC(c1cc(F)cc(OC(F)(F)F)c1)N1C[C@H](C)N(c2cc(=O)n(C)c3ccc(C#N)nc23)C[C@H]1C (single isomer, unassigned) [Example 1211]", "pIC50": 4.89}

Now consider a different compound.
Query :: For the compound shown here, CC(C)[C@H]1CN(C(c2ccc(F)cc2)c2ccc(F)cc2)[C@@H](C)CN1c1cc(=O)n(C)c2ccc(C#N)nc12 , give the reported pIC50.
Result :: 4.44

Where do the numbers come from? From patent US10669272B2.
